Molecular target: panel of 255 wild-type kinases (Homo sapiens, UniProt Q9UL54)
Sequence (Q9UL54 1-1235): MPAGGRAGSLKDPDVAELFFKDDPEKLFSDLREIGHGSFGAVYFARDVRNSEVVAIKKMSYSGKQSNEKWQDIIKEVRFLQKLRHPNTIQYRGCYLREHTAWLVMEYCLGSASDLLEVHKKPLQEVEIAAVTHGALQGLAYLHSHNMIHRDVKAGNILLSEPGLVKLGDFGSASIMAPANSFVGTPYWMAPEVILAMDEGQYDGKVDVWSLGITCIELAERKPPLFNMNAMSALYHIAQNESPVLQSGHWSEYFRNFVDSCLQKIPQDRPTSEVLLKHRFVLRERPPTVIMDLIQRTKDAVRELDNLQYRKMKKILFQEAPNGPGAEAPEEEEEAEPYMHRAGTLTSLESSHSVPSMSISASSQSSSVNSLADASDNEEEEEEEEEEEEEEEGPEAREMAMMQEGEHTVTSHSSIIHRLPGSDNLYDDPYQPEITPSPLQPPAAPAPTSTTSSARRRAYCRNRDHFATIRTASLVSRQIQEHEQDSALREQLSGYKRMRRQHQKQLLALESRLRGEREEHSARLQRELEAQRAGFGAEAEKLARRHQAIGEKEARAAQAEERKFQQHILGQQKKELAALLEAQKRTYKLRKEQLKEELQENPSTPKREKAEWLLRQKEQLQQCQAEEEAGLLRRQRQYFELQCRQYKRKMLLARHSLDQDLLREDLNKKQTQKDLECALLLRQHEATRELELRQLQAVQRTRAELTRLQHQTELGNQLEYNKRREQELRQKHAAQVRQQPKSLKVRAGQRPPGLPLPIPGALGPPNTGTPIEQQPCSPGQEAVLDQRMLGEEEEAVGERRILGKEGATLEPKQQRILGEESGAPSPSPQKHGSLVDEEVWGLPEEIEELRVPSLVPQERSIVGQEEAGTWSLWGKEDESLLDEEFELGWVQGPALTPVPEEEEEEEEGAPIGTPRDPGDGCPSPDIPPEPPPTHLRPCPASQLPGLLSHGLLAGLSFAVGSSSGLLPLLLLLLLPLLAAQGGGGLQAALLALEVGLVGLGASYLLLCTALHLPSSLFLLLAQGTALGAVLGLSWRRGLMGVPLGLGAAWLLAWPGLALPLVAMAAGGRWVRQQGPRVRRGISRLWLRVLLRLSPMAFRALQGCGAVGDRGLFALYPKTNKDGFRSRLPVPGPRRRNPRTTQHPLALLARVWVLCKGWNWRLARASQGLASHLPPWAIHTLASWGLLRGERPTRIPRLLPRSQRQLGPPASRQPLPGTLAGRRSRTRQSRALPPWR
Assay: Kinase panel profiling at 1 µmol/L (MSA or IMAP), percentage inhibition
Format: biochemical
Settings: kinase TAOK2; 1 µmol/L single concentration; read-out: %-inhibition at 1 µmol/L, TAOK2
measurement-name: inhibition at 1 µM (%)

// known answers, use as guide
Cn1cnc2c(F)c(Nc3ccc(Br)cc3F)c(C(=O)NOCCO)cc21 = 0.465
CO[C@]1(C(=O)N[C@@H](C)c2ccc(-n3cc(F)cn3)nc2)CC[C@H](c2nc(C)cc(Nc3cc(C)[nH]n3)n2)CC1 = 14
CCc1nc(C(N)=O)c(Nc2ccc(N3CCC(N4CCN(C)CC4)CC3)c(OC)c2)nc1NC1CCOCC1 = 9
CCN1C(=O)N(c2c(F)c(OC)cc(OC)c2F)Cc2cnc3[nH]c(CN4CCOCC4)cc3c21 = 48

1 = COc1ccc(CN2C3CC2CN(c2ccc(-c4cc(OCC(C)(C)O)cn5ncc(C#N)c45)cn2)C3)cn1
2 = Cc1nc(NC(=O)N2CCC[C@H]2C(N)=O)sc1-c1ccnc(C(C)(C)C(F)(F)F)c1
3 = C[C@H](Nc1ncnc2nc[nH]c12)c1cc2cccc(Cl)c2c(=O)n1-c1ccccc1
In: Put the items in order so that reported inhibition at 1 µM rises from first to last. Show the ranking through the labels, in the order asked for.
Out: 2, 3, 1

###

tested on: 134 cancer cell lines; assay: Cell viability assay (ATPlite, 72 hours), IC50 on cancer cell line panel; settings: Homo sapiens, MeWo, read-out: IC50 in cell proliferation assay
measurement-name: pIC50
pIC50 is defined as minus the log10 of a concentration measured in mol/L.

CCn1c(=O)c(-c2cc(NC(=O)Nc3ccccc3)c(F)cc2Br)cc2cnc(NC)cc21 [ripretinib] = 5.45

In: Using the record for C=CC(=O)N1CCC[C@@H](n2nc(-c3ccc(Oc4ccccc4)cc3)c3c(N)ncnc32)C1 [ibrutinib] , state its measured pIC50.
Out: 4.54

In: Using the record for CCN1C(=O)N(c2c(F)c(OC)cc(OC)c2F)Cc2cnc3[nH]c(CN4CCOCC4)cc3c21 [pemigatinib] , state its measured pIC50.
Out: 5.55

###

test system: 134 cancer cell lines; assay: Cell viability assay (ATPlite, 72 hours), IC50 on cancer cell line panel; details: Homo sapiens, ASPC1, read-out: IC50 in cell proliferation assay
measurement-name: IC50

In: Using the record for CNC(=O)c1ccc(-c2cnc3ncc(Cc4ccc5ncccc5c4)n3n2)cc1F , state its measured IC50.
Out: > 31.6 µM

###

biological target: panel of 255 wild-type kinases (Homo sapiens); assay: Kinase panel profiling at 1 µmol/L (MSA or IMAP), percentage inhibition; format: biochemical; conditions: kinase KDR; 1 µmol/L single concentration; read-out: %-inhibition at 1 µmol/L, KDR
measurement-name: inhibition at 1 µM (%)

// known answers, use as guide
CCn1c(=O)c(-c2cc(NC(=O)Nc3ccccc3)c(F)cc2Br)cc2cnc(NC)cc21 = 111
C=CC(=O)N1CCC([C@@H]2CCNc3c(C(N)=O)c(-c4ccc(Oc5ccccc5)cc4)nn32)CC1 = 11

P = COc1cc2ncnc(Nc3ccc(F)c(Cl)c3)c2cc1NC(=O)/C=C/CN1CCCCC1
Q = CO[C@]1(C(=O)N[C@@H](C)c2ccc(-n3cc(F)cn3)nc2)CC[C@H](c2nc(C)cc(Nc3cc(C)[nH]n3)n2)CC1
In: Smaller inhibition at 1 µM value, P vs Q ? State your choice using its label.
Out: P
(P: 42%, Q: 95%)

###

target: panel of 255 wild-type kinases (Homo sapiens); test: Kinase panel profiling at 1 µmol/L (MSA or IMAP), percentage inhibition; type: biochemical; conditions: MELK; 1 µmol/L single concentration; read-out: %-inhibition, MELK
measurement-name: inhibition at 1 µM (%)

Cn1cc(-c2cc3c(N4CCN(c5ncc([C@@](C)(N)c6ccc(F)cc6)cn5)CC4)ncnn3c2)cn1 = 9
CCc1nc(C(N)=O)c(Nc2ccc(N3CCC(N4CCN(C)CC4)CC3)c(OC)c2)nc1NC1CCOCC1 = 75

I = C[C@H](Nc1ncnc2nc[nH]c12)c1cc2cccc(Cl)c2c(=O)n1-c1ccccc1
II = COc1cc2ncnc(Nc3ccc(F)c(Cl)c3)c2cc1NC(=O)/C=C/CN1CCCCC1
In: Smaller inhibition at 1 µM value, I vs II ? State your choice using its label.
Out: I
(I: 2.43%, II: 15%)

###

target: panel of 255 wild-type kinases (Homo sapiens); test: Kinase panel profiling at 1 µmol/L (MSA or IMAP), percentage inhibition; format: biochemical; settings: MARK3; 1 µmol/L single concentration; read-out: %-inhibition, MARK3
measurement-name: inhibition at 1 µM (%)

FC(F)(F)c1ccc(CNc2ccc(Cc3c[nH]c4ncc(Cl)cc34)cn2)cn1 = 12

I = O=C(Nc1cnn2ccc(N3CCC[C@@H]3c3cc(F)ccc3F)nc12)N1CC[C@H](O)C1
II = Cn1cnc2c(F)c(Nc3ccc(Br)cc3F)c(C(=O)NOCCO)cc21
In: Smaller inhibition at 1 µM value, I vs II ? State your choice using its label.
Out: I

###

tested on: panel of 255 wild-type kinases; assay: Kinase panel profiling at 1 µmol/L (MSA or IMAP), percentage inhibition; format: biochemical; conditions: kinase SRM; 1 µmol/L single concentration
measurement-name: %-inhibition at 1 µmol/L, SRM (%)

// known answers, use as guide
COc1ccc(CN2C3CC2CN(c2ccc(-c4cc(OCC(C)(C)O)cn5ncc(C#N)c45)cn2)C3)cn1 = -1.55
COc1cc2ncnc(Nc3ccc(F)c(Cl)c3)c2cc1NC(=O)/C=C/CN1CCCCC1 = 1.79

A = Cn1cnc2c(F)c(Nc3ccc(Br)cc3Cl)c(C(=O)NOCCO)cc21
B = C[C@H](Nc1ncnc2nc[nH]c12)c1cc2cccc(Cl)c2c(=O)n1-c1ccccc1
C = O=C(Nc1cnn2ccc(N3CCC[C@@H]3c3cc(F)ccc3F)nc12)N1CC[C@H](O)C1
D = Cc1cc(Nc2ncnc3ccc(NC4=NC(C)(C)CO4)cc23)ccc1Oc1ccn2ncnc2c1
In: Place the items in sequence of falling %-inhibition at 1 µmol/L, SRM. Show the ranking through the labels, in the order asked for.
Out: B, D, A, C
(B: 4%, D: 2.77%, A: -1.41%, C: -3.2%)

1 = CO[C@]1(C(=O)N[C@@H](C)c2ccc(-n3cc(F)cn3)nc2)CC[C@H](c2nc(C)cc(Nc3cc(C)[nH]n3)n2)CC1
2 = Cc1nc(NC(=O)N2CCC[C@H]2C(N)=O)sc1-c1ccnc(C(C)(C)C(F)(F)F)c1
In: Smaller %-inhibition at 1 µmol/L, SRM value, 1 vs 2 ? State your choice using its label.
Out: 2
(2: 1%, 1: 13%)
